Tested on: OvCAR3 cells
Experiment: Cellular proliferation / Cytotoxicity assay (Alamar Blue)
Format: cell-based
Conditions: Homo sapiens, OVCAR-3, 48h incubation, Alamar Blue (Resazurin) cell viability, read-out: Anti-proliferative / Cytotoxic activity (OvCAR3 cells)
pIC50: −log10 of the molar value.
So I've got a bunch of molecules here, and I need their pIC50 values.

// batch mode: one pIC50 value per listed entry
1. C=Cc1cnc2nc(-c3ccc(CN4CCC(c5n[nH]c(-c6ccccn6)n5)CC4)cc3)c(-c3ccccc3)cn12
2. Fc1cnc2nc(-c3ccc(CN4CCC(c5n[nH]c(-c6ccccn6)n5)CC4)cc3)c(-c3ccccc3)cn12
3. N#Cc1cnc2nc(-c3ccc(CN4CCC(c5n[nH]c(-c6ccccn6)n5)CC4)cc3)c(-c3ccccc3)cn12
4. c1ccc(-c2cn3nc(C4CC4)nc3nc2-c2ccc(CN3CCC(c4n[nH]c(-c5ccccn5)n4)CC3)cc2)cc1
5. CCc1cnc2nc(-c3ccc(CN4CCC(c5n[nH]c(-c6ccccn6)n5)CC4)cc3)c(-c3ccccc3)cn12
6. c1ccc(-c2cn3ccnc3nc2-c2ccc(CN3CCC(c4cc(-c5ccccn5)n[nH]4)CC3)cc2)cc1
7. Brc1cnc2nc(-c3ccc(CN4CCC(c5n[nH]c(-c6ccccn6)n5)CC4)cc3)c(-c3ccccc3)cn12

1: > 6.00; 2: > 6.00; 3: < 6.00; 4: > 6.00; 5: > 6.00; 6: < 6.00; 7: > 6.00

Each recorded value in this set is attributed to patent EP2050748A1.
